Provide the recorded Composition: newly formed saccharide for the entries that follow.
# Test system: non-reducing saccharide-forming enzyme
# Assay type: biochemical, Rhizobium species M-11
# CONDITION_INFO: 20% substrate, 2 units/g, 40° C., pH7.0, 48 hours

OC[C@H]1O[C@H](O[C@H]2[C@H](O)[C@@H](O)[C@@H](O[C@H]3[C@H](O)[C@@H](O)[C@@H](O[C@H]4[C@H](O)[C@@H](O)C(O)O[C@@H]4CO)O[C@@H]3CO)O[C@@H]2CO)[C@H](O)[C@@H](O)[C@@H]1O (some centres unmarked) [Maltotetraose, maltotetraose, reference compound]	85.6%
OC[C@H]1O[C@H](O[C@H]2[C@H](O)[C@@H](O)[C@@H](O[C@H]3[C@H](O)[C@@H](O)[C@@H](O[C@H]4[C@H](O)[C@@H](O)[C@@H](O[C@H]5[C@H](O)[C@@H](O)[C@@H](O[C@H]6[C@H](O)[C@@H](O)[C@@H](O[C@H]7[C@H](O)[C@@H](O)C(O)O[C@@H]7CO)O[C@@H]6CO)O[C@@H]5CO)O[C@@H]4CO)O[C@@H]3CO)O[C@@H]2CO)[C@H](O)[C@@H](O)[C@@H]1O (some centres unmarked) [Maltoheptaose, maltoheptaose, reference compound]	93.4%
OC[C@H]1O[C@H](O[C@H]2[C@H](O)[C@@H](O)[C@@H](O[C@H]3[C@H](O)[C@@H](O)[C@@H](O[C@H]4[C@H](O)[C@@H](O)[C@@H](O[C@H]5[C@H](O)[C@@H](O)C(O)O[C@@H]5CO)O[C@@H]4CO)O[C@@H]3CO)O[C@@H]2CO)[C@H](O)[C@@H](O)[C@@H]1O (some centres unmarked) [Maltopentaose, maltopentaose, reference compound]	92.7%
OC[C@H]1O[C@H](O[C@H]2[C@H](O)[C@@H](O)[C@@H](O[C@H]3[C@H](O)[C@@H](O)[C@@H](O[C@H]4[C@H](O)[C@@H](O)[C@@H](O[C@H]5[C@H](O)[C@@H](O)[C@@H](O[C@H]6[C@H](O)[C@@H](O)C(O)O[C@@H]6CO)O[C@@H]5CO)O[C@@H]4CO)O[C@@H]3CO)O[C@@H]2CO)[C@H](O)[C@@H](O)[C@@H]1O (some centres unmarked) [Maltohexaose, maltohexaose, reference compound]	93.5%

stdin: Give recorded Composition: newly formed saccharide with non-reducing saccharide-forming enzyme for the following molecule: OC[C@H]1O[C@H](O[C@H]2[C@H](O)[C@@H](O)[C@@H](O[C@H]3[C@H](O)[C@@H](O)C(O)O[C@@H]3CO)O[C@@H]2CO)[C@H](O)[C@@H](O)[C@@H]1O (some centres unmarked) [Maltotriose, maltotriose, reference compound]
stdout: 35.0%

---

Provide the recorded PII in degradation product by alpha-amylase for the entries that follow.
# Test system: pig pancreas alpha-amylase
# EXPERIMENT_DESCRIPTION: Degradation by pig pancreas alpha-amylase
# Assay type: biochemical
# CONDITION_INFO: pH6.9, 37° C., 18 hours

OC[C@H]1O[C@H](O[C@H]2O[C@H](CO)[C@@H](O[C@H]3O[C@H](CO)[C@@H](O[C@H]4O[C@H](CO)[C@@H](O[C@H]5O[C@H](CO)[C@@H](O)[C@H](O)[C@H]5O)[C@H](O)[C@H]4O)[C@H](O)[C@H]3O)[C@H](O)[C@H]2O)[C@H](O)[C@@H](O)[C@@H]1O [PIII, alpha-maltotriosyl trehalose]	4.8%

stdin: Give recorded PII in degradation product by alpha-amylase with pig pancreas alpha-amylase for the following molecule: OC[C@H]1O[C@H](O[C@H]2O[C@H](CO)[C@@H](O[C@H]3O[C@H](CO)[C@@H](O[C@H]4O[C@H](CO)[C@@H](O)[C@H](O)[C@H]4O)[C@H](O)[C@H]3O)[C@H](O)[C@H]2O)[C@H](O)[C@@H](O)[C@@H]1O [PII, alpha-maltosyl trehalose]
stdout: 98.8%
